Recorded Potency for the following molecules
Experiment: Quantitative High-Throughput drug screen in 47 multiple myeloma cell lines against the NCATS MIPE library collection: KMS28BM_JCRB cell viability assay (AID 1919874); note: potency is the fitted concentration of half-maximal effect; nearly all actives have a fitted effect of over 35% in size
Settings: CellTiter-Glo ATP, 48 h; series mostly up to 45.8 µM
Description: PI: Beverly A. Mock Ph.D. Laboratory of Cancer Biology and Genetics, Center for Cancer Research, National Cancer Institute, National Institute of Health, Bethesda, Maryland […] 5; Detector; 425V; Luminescence; Viewlux PerkinElmer. […] 1. […] Briefly, the corresponding myeloma cell lines were screened in 1,536-well plates with 500 cells, 5-uL per well for inhibition of cell viability (assessed by measuring ATP levels with CellTiterGlo). […]
Records with an inconclusive call do not appear. Calls of active or inactive are those of the source. Calls come from the whole dose curve; as a rule, active = well fitted cell-killing curve with a large enough effect; inconclusive = small, poorly fitted or top-dose-only effect, or effect the other way; inactive = no such curve, though single readings can be large or run the other way.

Cc1[nH]c2ccccc2c1CCNCc1ccc(C=CC(=O)NO)cc1    52.6 nM (active)
CNc1nccc(-c2cccnc2Oc2cc(C(=O)Nc3cccc(C(F)(F)F)c3)ccc2C)n1    23500 nM (active)

Next molecule, please.
May I ask what Potency has been recorded for Cc1[nH]nc2ccc(-c3cncc(OC[C@@H](N)Cc4ccccc4)c3)cc12 ? 296 nM (active)

====

Test: Quantitative High-Throughput drug screen in 47 multiple myeloma cell lines against the NCATS MIPE library collection: ARP1_JJKsccF8 cell viability assay (AID 1918928; note: nearly all actives have a fitted effect of over 40% in size)
Settings: ARP1 myeloma cells viability, CellTiter-Glo ATP, 48 h; series mostly up to 45.8 µM
Description: PI: Beverly A. Mock Ph.D. Laboratory of Cancer Biology and Genetics, Center for Cancer Research, National Cancer Institute, National Institute of Health, Bethesda, Maryland […] 5; Detector; 425V; Luminescence; Viewlux PerkinElmer. […] 1. […] Briefly, the corresponding myeloma cell lines were screened in 1,536-well plates with 500 cells, 5-uL per well for inhibition of cell viability (assessed by measuring ATP levels with CellTiterGlo). […]
Results filed as inconclusive are left out. The source made the active and inactive calls. Calls come from the whole dose curve; as a rule, active = well fitted cell-killing curve with a large enough effect; inconclusive = small, poorly fitted or top-dose-only effect, or effect the other way; inactive = no such curve, though single readings can be large or run the other way.
Parameter call: string, one of TRUE = active, FALSE = inactive

Answered cases to consult:
COc1c(OCCCN2CCOCC2)ccc2c3n(c(=NC(=O)c4cnc(N)nc4)nc12)CCN3    TRUE
Cc1coc2c1C(=O)C(=O)c1c-2ccc2c1CCCC2(C)C    TRUE

Could you kindly confirm the outcome this assay logged for Cc1cc(Nc2nc(N[C@@H](C)c3ccc(F)cc3)c(C#N)cc2F)n[nH]1 ? TRUE

Could you kindly confirm the outcome this assay logged for Cn1c(CNc2ccc(C(=N)N)cc2)nc2cc(C(=O)N(CCC(=O)O)c3ccccn3)ccc21 ? FALSE

Could you kindly confirm the outcome this assay logged for Nc1ncnc2c1c(-c1cccc(OCc3ccccc3)c1)cn2C1CC(CN2CCCC2)C1 (stereo unspecified) ? TRUE

Could you kindly confirm the outcome this assay logged for COC(=O)Nc1nc2ccc(C(=O)c3ccc(F)cc3)cc2[nH]1 ? TRUE

Could you kindly confirm the outcome this assay logged for Cc1ccc(C(N)=O)cc1Nc1nccc(-c2cn(C(C)C)c3cnccc23)n1 ? TRUE

Could you kindly confirm the outcome this assay logged for Nc1ccc(C(=O)c2cc3c(ccc4ccccc43)[nH]2)cc1 ? TRUE

Could you kindly confirm the outcome this assay logged for COc1ccc(CC2SC(=O)NC2=O)cc1C(=O)NCc1ccc(C(F)(F)F)cc1 (stereo unspecified) ? FALSE

Could you kindly confirm the outcome this assay logged for CC(=O)SC[C@@H](C)C(=O)N1CCC[C@H]1C(=O)N[C@@H](Cc1ccccc1)C(=O)O ? FALSE

Could you kindly confirm the outcome this assay logged for CC(=O)OCC(=O)[C@@]1(O)[C@H](C)C[C@H]2[C@@H]3C=C(C)C4=Cc5c(cnn5-c5ccccc5)C[C@]4(C)[C@@H]3[C@@H](O)C[C@@]21C ? TRUE

Could you kindly confirm the outcome this assay logged for Cc1[nH]c2ccccc2c1CCNCc1ccc(C=CC(=O)NO)cc1 ? TRUE

Could you kindly confirm the outcome this assay logged for CC(C)[C@H](C(=O)Nc1ccc(C(=O)NO)cc1)c1ccccc1 ? TRUE

Could you kindly confirm the outcome this assay logged for O=C(O)c1ccc2c(c1)nc(Nc1cccc(Cl)c1)c1ccncc12 ? TRUE

Could you kindly confirm the outcome this assay logged for Cn1c2ccccc2c2c3c(c4c5ccccc5n(CCC#N)c4c21)CNC3=O ? TRUE

Could you kindly confirm the outcome this assay logged for O=C(C=Cc1cccc(S(=O)(=O)Nc2ccccc2)c1)NO ? TRUE

// data source = PubChem BioAssay (NCATS)
